experiment: in vitro; conditions: human, hela cells, % viability
READOUT_NAME: viability at 28.5 h, 10 µM (%)
Entry rule: numbers only, all in %.

Record COCCCNCC#CCOc1ccccc1OC [CBK267419G] , field viability at 28.5 h, 10 µM: 94.5

Lookup result for NC(=O)CN1CCC(C(=O)c2ccc(F)cc2)CC1 ; measured viability at 28.5 h, 10 µM: 96.6

Just so you know, measured viability at 28.5 h, 10 µM for c1cncc(COc2cc(N3CCCC3)ncn2)c1 came out at 96.9

Cc1ccc2nc3c(cc2c1)CN(Cc1ccco1)C(=O)CO3 yielded viability at 28.5 h, 10 µM of 103

Entry O=C(O)CS(=O)(=O)c1ccc(Cl)cc1 [CBK262036G] , viability at 28.5 h, 10 µM reported as 114

// field: viability at 28.5 h, 10 µM; key: CN1CCN(C(C(=O)O)c2cn(CCC(=O)O)c3ccc(Br)cc23)CC1 (stereo not drawn) ; value = 103
